- Assayed System: T1, Anti-CD28 Fab (SEQ ID NOs: 696, 697)
- T1 construct: Biotinylated and captured on neutravidin coated plates in the phage ELISA
- T1 sequence (VH, as listed by the source, chain 1 of 2): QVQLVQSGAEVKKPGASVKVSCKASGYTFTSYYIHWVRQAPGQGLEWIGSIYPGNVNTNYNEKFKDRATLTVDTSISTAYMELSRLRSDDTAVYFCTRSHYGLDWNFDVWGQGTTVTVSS
- T1 sequence (VL, as listed by the source, chain 2 of 2): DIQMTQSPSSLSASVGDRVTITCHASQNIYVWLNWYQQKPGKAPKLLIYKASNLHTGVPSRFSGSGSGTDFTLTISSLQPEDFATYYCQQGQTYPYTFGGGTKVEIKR
- Protocol Description: phage binding ELISA; biotinylated anti-CD28 Fab on neutravidin plate, bound phage detected with anti-M13-HRP;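 also: clonal phage tested as crude supernatants, given a short incubation in the Fab-captured wells before bound phage were read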
The entries below are paired with their reported Anti-CD28 Fab (SEQ ID NOs: 696, 697) signal.
Measure: Anti-CD28 Fab (SEQ ID NOs: 696, 697) signal

| Binder | Recorded Value |
| --- | --- |
| TCSAGATYSWPFCF (tested as crude phage supernatant) [Phage-1534] | 1.55 |
| LCAEGFDYSWPMCL (tested as crude phage supernatant) [Phage-1533] | 1.55 |
| TCAAGASWEWPLCF (tested as crude phage supernatant) [Phage-1541] | 1.52 |
| SCKAGAPYYWPGCF (tested as crude phage supernatant) [Phage-1535] | 1.54 |
| LCSAGAMWQWPTCL (tested as crude phage supernatant) [Phage-1544] | 1.51 |
| TCAAGAAWEWPICF (tested as crude phage supernatant) [Phage-1538] | 1.54 |
| SCSAGAAWPWPWCL (tested as crude phage supernatant) [Phage-1532] | 1.55 |
| TCAAGATWDWPLCF (tested as crude phage supernatant) [Phage-1546] | 1.51 |
